Hey, just so you know, these numbers are from ChEMBL document CHEMBL4184129.

- system_name: DNA repair nuclease/redox regulator APEX1 (Homo sapiens, UniProt P27695)
- Sequence (P27695 whole entry): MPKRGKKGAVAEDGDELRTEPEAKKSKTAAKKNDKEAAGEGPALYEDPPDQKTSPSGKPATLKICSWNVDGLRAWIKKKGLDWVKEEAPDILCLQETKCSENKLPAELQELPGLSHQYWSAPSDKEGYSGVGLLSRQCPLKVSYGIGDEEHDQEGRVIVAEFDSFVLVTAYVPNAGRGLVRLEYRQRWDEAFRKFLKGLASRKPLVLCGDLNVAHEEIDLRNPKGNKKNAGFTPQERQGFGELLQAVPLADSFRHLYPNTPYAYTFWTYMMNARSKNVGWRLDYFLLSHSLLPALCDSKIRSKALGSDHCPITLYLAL
- experimental_details: Inhibition of His-tagged human APE1 expressed in Escherichia coli M15 assessed as reduction in cleavage of 26 mer substrate to 13 mer products pre-incubated for 30 mins before substrate addition for 15 mins using 5' end [32P] AP site containing 26 mer oligonucleotide by polyacrylamide gel electrophoresis

{"smiles_data": "COc1c(C(=O)O)cccc1C(=O)NCc1cccc(Cl)c1", "system_name": "DNA repair nuclease/redox regulator APEX1 (Homo sapiens, UniProt P27695)", "IC50": "16 µM"}
{"smiles_data": "COc1cccc(CNC(=O)c2cccc(C(=O)O)c2OC)c1", "system_name": "DNA repair nuclease/redox regulator APEX1 (Homo sapiens, UniProt P27695)", "IC50": "19 µM"}
{"smiles_data": "COc1c(C(=O)O)cccc1C(=O)NCc1ccc(Cl)c(Cl)c1", "system_name": "DNA repair nuclease/redox regulator APEX1 (Homo sapiens, UniProt P27695)", "IC50": "18 µM"}
{"smiles_data": "COc1ccc(CNC(=O)c2cccc(C(=O)O)c2OC)cc1OC", "system_name": "DNA repair nuclease/redox regulator APEX1 (Homo sapiens, UniProt P27695)", "IC50": "18 µM"}

* * *

- system_name: DNA repair nuclease/redox regulator APEX1 (Homo sapiens, UniProt P27695)
- experimental_details: Inhibition of APE1 in human HeLa cells assessed as reduction in AP site cleavage 5'-[gamma-32P]CTCGCAAGUGGGTACCGA-3' as substrate after 1 hr
- Assay type: cell-based
pIC50: −log10 of the molar value.

{"smiles_data": "O=C(O)c1cc2cccc([N+](=O)[O-])c2[nH]1", "pIC50": 5.51}

* * *

molecules and their reported pIC50
- system_name: DNA repair nuclease/redox regulator APEX1 (Homo sapiens, UniProt P27695)
- experimental_details: Inhibition of human APE1 assessed as reduction in abasic sites DNA cleavage using 6-FAM/TAMRA labelled 17-Tphi as substrate by fluorescence-based assay
pIC50: −log10 of the molar value.
reported_metric: pIC50

{"smiles_data": "c1cc2ccc3cc2cc1CNCCOCCNCc1ccc2ccc(cc2c1)CNCCOCCNC3", "recorded_measurement": 7.26}
{"smiles_data": "c1cc2ccc3cc2cc1CNCCNCCNCc1ccc2ccc(cc2c1)CNCCNCCNC3", "recorded_measurement": 7.24}

* * *

- system_name: DNA repair nuclease/redox regulator APEX1 (Homo sapiens)
- experimental_details: Inhibition of nuclease activity of APE1 in human glioblastoma cells assessed as reduction in AP site DNA cleavage
- Format: cell-based
pIC50: −log10 of the molar value.
reported_metric: pIC50

{"smiles_data": "O=c1oc(-c2ccccc2F)nc2cc(Cl)ccc12", "system_name": "DNA repair nuclease/redox regulator APEX1 (Homo sapiens)", "recorded_measurement": 5.80}
{"smiles_data": "O=c1oc(-c2ccc(Cl)cc2Cl)nc2ccc([N+](=O)[O-])cc12", "system_name": "DNA repair nuclease/redox regulator APEX1 (Homo sapiens)", "recorded_measurement": 5.70}
{"smiles_data": "C=C1S/C(=N\\c2ccccc2Cl)N(C(=O)c2sc3ccccc3c2Cl)C12CCCCC2", "system_name": "DNA repair nuclease/redox regulator APEX1 (Homo sapiens)", "recorded_measurement": 5.85}
{"smiles_data": "Cc1sc(-c2ccc(Cl)cc2)nc1-c1ccc(-c2ccccc2F)cc1", "system_name": "DNA repair nuclease/redox regulator APEX1 (Homo sapiens)", "recorded_measurement": 5.89}
{"smiles_data": "CC(C)(C)c1ccc(S(=O)(=O)Oc2ccc(-c3ccc(Oc4c(Cl)cccc4[N+](=O)[O-])cc3)cc2)cc1", "system_name": "DNA repair nuclease/redox regulator APEX1 (Homo sapiens)", "recorded_measurement": 5.77}
{"smiles_data": "O=S(=O)(Oc1ccc(-c2ccc(OS(=O)(=O)c3ccc(Cl)c(Cl)c3)cc2)cc1)c1ccc(Cl)c(Cl)c1", "system_name": "DNA repair nuclease/redox regulator APEX1 (Homo sapiens)", "recorded_measurement": 5.74}
{"smiles_data": "CC(C)(C)c1ccc(OC(=O)c2sc3ccccc3c2Cl)c(C(C)(C)C)c1", "system_name": "DNA repair nuclease/redox regulator APEX1 (Homo sapiens)", "recorded_measurement": 6.10}
{"smiles_data": "Cc1sc(Nc2cc(Cl)cc(Cl)c2)nc1-c1ccc(-c2ccccc2F)cc1", "system_name": "DNA repair nuclease/redox regulator APEX1 (Homo sapiens)", "recorded_measurement": 6.05}
{"smiles_data": "Brc1cc(-c2cc(Br)c(Br)c(Br)c2)cc(Br)c1Br", "system_name": "DNA repair nuclease/redox regulator APEX1 (Homo sapiens)", "recorded_measurement": 6.70}

* * *

- system_name: DNA repair nuclease/redox regulator APEX1 (Homo sapiens, UniProt P27695)
- experimental_details: Inhibition of human APE1 using a 5'-TAMRA labelled THF abasic site double-stranded oligodeoxynucleotide as substrate in presence of Mg2+ by fluorescence polarization displacement assay

{"smiles_data": "COc1cc2c(ccc3cc(OC)c(OC)c(O)c32)cc1O", "unit_descriptor": "nM", "IC50": 400}
{"smiles_data": "CCOC(=O)c1cc(-c2ccc(/C=C3/C(=O)N(c4ccc(C(=O)O)cc4)N=C3C)o2)ccc1Cl", "unit_descriptor": "nM", "IC50": 6800}
{"smiles_data": "O=C1NC(=O)N(Cc2ccco2)C(=O)/C1=C/C=C/c1ccco1", "unit_descriptor": "nM", "IC50": 2800}

* * *

- system_name: DNA repair nuclease/redox regulator APEX1 (Homo sapiens, UniProt P27695)
- experimental_details: Inhibition of APE1 in human HeLa cells
- Assay type: cell-based
pIC50: −log10 of the molar value.

{"smiles_data": "O=C(CSc1ncn[nH]1)Nc1cccc2c1C(=O)c1ccccc1C2=O", "pIC50": 5.40}

* * *

molecules and their reported IC50
- system_name: DNA repair nuclease/redox regulator APEX1 (Homo sapiens, UniProt P27695)
- experimental_details: Inhibition of recombinant human APE1 using a 5'-FAM/3'-Dabsyl labelled double-stranded DNA as substrate after 30 mins by fluorescence-based assay

{"smiles_data": "O=[N+]([O-])c1cccc(S(=O)(=O)[N-]c2nc3ccccc3nc2-[n+]2ccc(Cc3ccccc3)cc2)c1", "unit_descriptor": "µM", "IC50": 6.8}
{"smiles_data": "O=C(O)CC[C@H]1N[C@@]2(C(=O)Nc3c(Cl)cccc32)[C@H]2C(=O)N(Cc3ccc4c(c3)OCO4)C(=O)[C@@H]12", "unit_descriptor": "µM", "IC50": 1.8}

* * *

- system_name: DNA repair nuclease/redox regulator APEX1 (Homo sapiens, UniProt P27695)
- experimental_details: Inhibition of N-terminal hexa-His tagged human APE1 expressed in Escherichia coli BL21 (Rosetta) using fluorescein-dabcyl-containing oligonucleotide as substrate measured over 5 mins by high-throughput fluorescence assay
pIC50: −log10 of the molar value.

{"smiles_data": "Cc1ccc(C)n1-c1ccc(OCC(=O)O)cc1", "pIC50": 5.77}
{"smiles_data": "Cc1cc(C)c2c(N)c3cccc(C)c3nc2n1", "pIC50": 5.68}
{"smiles_data": "O=C(Nc1cccc(Cl)c1)c1noc2c1CCC2", "pIC50": 5.80}
